The entries below are paired with their reported pKi.
- target: Histamine H3 receptor (Rattus norvegicus)
- Sequence (Q9QYN8 whole entry): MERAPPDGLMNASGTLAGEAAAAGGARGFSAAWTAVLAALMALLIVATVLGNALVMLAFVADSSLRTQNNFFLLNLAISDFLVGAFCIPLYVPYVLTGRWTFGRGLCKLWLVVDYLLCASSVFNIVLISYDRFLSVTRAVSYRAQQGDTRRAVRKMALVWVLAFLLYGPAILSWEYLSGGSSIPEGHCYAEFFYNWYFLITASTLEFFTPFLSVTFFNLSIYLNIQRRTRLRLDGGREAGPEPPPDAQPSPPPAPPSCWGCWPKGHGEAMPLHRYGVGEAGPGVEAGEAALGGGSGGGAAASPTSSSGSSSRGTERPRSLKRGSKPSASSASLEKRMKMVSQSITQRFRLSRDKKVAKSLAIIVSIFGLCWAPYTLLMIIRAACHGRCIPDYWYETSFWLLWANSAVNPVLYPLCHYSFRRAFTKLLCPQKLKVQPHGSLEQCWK
- assay method text: Inhibition of [3H]- N-alpha-methylhistamine from histamine H3 receptor
// returns pKi (minus log10 of molar concentration), number only

1. COc1ccc(C/C(=N\O)C(=O)NCCc2c[nH]cn2)cc1Br; 9.30

Consider the additional molecule presented here.
The molecule listed as "Cn1cncc1CCN" shows pKi equal to 9.00
